B1: ZNF207 (parent)
chain: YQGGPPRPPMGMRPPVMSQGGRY

- Variants of: B1
- ASSAY COMMENT: protein stability index of a GFP-peptide fusion (GPS, HEK-293T) (PSI 1-6); higher = more stable;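 also: lentivirally expressed fusions sorted by FACS into six bins by GFP to DsRed ratio, PSI derived from sequencing read proportions per bin multiplied by bin number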
- RECORDED CONDITIONS: c terminus: native
Reported protein stability index values are given for each entry in this list.
Just the number, please, no unit attached.

As a guide, the following entries are already answered.
>  <VARIANT STRING>
Q19K

>  <protein stability index>
2.18

$$$$
>  <VARIANT STRING>
R7I

>  <protein stability index>
1.92

$$$$
>  <VARIANT STRING>
M10L

>  <protein stability index>
1.4

$$$$
>  <VARIANT STRING>
V16F

>  <protein stability index>
2.18

$$$$
>  <VARIANT STRING>
P6L

>  <protein stability index>
2.58

$$$$
>  <VARIANT STRING>
S18E

>  <protein stability index>
2.72

$$$$
>  <VARIANT STRING>
Y23C

>  <protein stability index>
1.97

$$$$
>  <VARIANT STRING>
P9G

>  <protein stability index>
2.84

$$$$
>  <VARIANT STRING>
P6N

>  <protein stability index>
2.59

$$$$
>  <VARIANT STRING>
P9M

>  <protein stability index>
1.12

$$$$

-- ask I'd like to know its protein stability index. The variant in question is G4S
-- reply 3.05

-- ask Please give the measured protein stability index for this variant: G11C
-- reply 1.81

-- ask Requested field: protein stability index. Item: Y23D
-- reply 3.11

-- ask Could you share which protein stability index value was measured for M17V ?
-- reply 1.49

-- ask protein stability index lookup needed for Q2F , thanks.
-- reply 1.65

-- ask What value of measured protein stability index is listed for P6K ?
-- reply 2.91
